This listing pairs compounds with measured INHIBITION.
Tested on: Plasmodium berghei
test_protocol: Screen against P. berghei liver stage (PbLuc), transformed with Luciferase, at 10uM
Type: functional, HepG2
experimental_conditions: tested at 10 uM
About 8,600 (12%) of roughly 69,000 compounds showed an effect of 50% or more. Many of the other results were omitted from the sample, so strong results are more common in it than they were.
// return numeric value only (unit: %, not printed)

Please review the entries below; each comes with its answer.
CC(C)c1nc(C2CCCN(C(=O)c3ccc4[nH]nnc4c3)C2)no1 (stereo unspecified) ... -6.14
O=C(NCCOc1ccc(Cl)cn1)Nc1ccccn1 ... -34.8

Okay, now this compound:
### Prompt Provide one value: measured INHIBITION of CCN(CC)Cc1cn2c(n1)CN(Cc1c(C)noc1C)CC2
### Response 16.6

---

Test system: Plasmodium berghei
test_protocol: Screen against P. berghei liver stage (PbLuc), transformed with Luciferase, at 10uM
Format: functional, HepG2
experimental_conditions: tested at 10 uM
Screen size: about 69,000 compounds; about 8,600 (12%) showed an effect of 50% or more. The full list was thinned out, with strong results kept by preference.
recorded_metric: INHIBITION
Give the figure together with its unit, number first.

CNc1cccc(C2CCCN(C(=O)c3ccncc3)C2)n1 (configuration not stated) ... 42.1%

### Prompt Provide one value: measured INHIBITION of COc1ccccc1N1CCN(C(=O)Cn2nc(C)c(Cl)c2C)CC1
### Response -29.2%

### Prompt Provide one value: measured INHIBITION of Cc1cncc(C2CCCN2CC(N)=O)n1 (configuration not stated)
### Response 35%

### Prompt Provide one value: measured INHIBITION of CNc1cccc(C2CCCN(C(C)=O)C2)n1 (configuration not stated)
### Response -1.58%

### Prompt Provide one value: measured INHIBITION of CCSCc1csc(-c2ccc(S(C)(=O)=O)cc2)n1
### Response -35.8%

### Prompt Provide one value: measured INHIBITION of CCCN1Cc2ccccc2NC(=O)C12CCNC2 (configuration not stated)
### Response 38.3%

### Prompt Provide one value: measured INHIBITION of c1coc(CN2CCCn3c(nnc3Cn3cccn3)C2)c1
### Response 4.68%

### Prompt Provide one value: measured INHIBITION of COc1ccccc1C1(NCc2c(C)nc3c(C)cccn23)CCCC1
### Response 49%

### Prompt Provide one value: measured INHIBITION of COCCN1CCOCC2(CCN(c3cnccn3)CC2)C1
### Response 29.4%

### Prompt Provide one value: measured INHIBITION of CNc1cccc(C2CCCN(C(=O)Cc3ccccc3)C2)n1 (configuration not stated)
### Response 81.2%

### Prompt Provide one value: measured INHIBITION of O=C(c1ccoc1)N1CCC2(CC1)C(=O)N(CC1CC1)c1ccccc12
### Response 29.7%

### Prompt Provide one value: measured INHIBITION of CCc1ocnc1C(=O)N1CCN(c2ccc3ccccc3c2)CC1
### Response 26.5%

---

System: Plasmodium berghei
test_protocol: Screen against P. berghei liver stage (PbLuc), transformed with Luciferase, at 10uM
Assay type: functional, HepG2
experimental_conditions: tested at 10 uM
In all, about 69,000 compounds went through this assay and about 8,600 (12%) showed an effect of 50% or more. This excerpt belongs to a sample that is enriched for strong results.
With a cut-off of -30%, any INHIBITION strictly below it is called YES; any INHIBITION meeting it or above is called NO.

CCN1CCC2(CCN(Cc3nccs3)CC2)C1=O ... NO
CC(C)Cc1noc(C2CCN(C(=O)c3cccs3)CC2)n1 ... NO
O=C(CCO)N[C@H]1CN(CC2CCC2)C[C@@H]1c1ccccc1 ... NO
Cc1nc(-c2ccc(S(=O)(=O)N3CCOCC3)cc2)co1 ... NO
O=C1CC(c2ccc(C(F)(F)F)cc2)c2c(n3ccsc3nc2=O)N1 (stereo unspecified) ... NO

Moving on to another compound below.
### Prompt Threshold test, INHIBITION < -30%: CN1C(=O)[C@@H]2CC[C@H]1CN(C(=O)c1nnc3n1CCCCC3)C2
### Response YES
